biological target: PAI-1 (Homo sapiens); experiment: PAI-1 inhibition in the S2251 chromogenic substrate assay (PAI functional assay); format: biochemical; settings: 50 μm; Table 1, first part; unit assumed
Outcome: t for INHIBITION OF PAI-1 (degree of inhibition) of at least 40%; f for anything lower.

Query: Dear colleague, could you confirm whether CC(=O)Nc1ccc(/C=c2\[nH]c(=O)/c(=C/c3ccc4c(c3)OCO4)[nH]c2=O)cc1 [Compound 1845] has INHIBITION OF PAI-1 (degree of inhibition) at or above 40%?
Result: f

Query: Dear colleague, could you confirm whether O=c1[nH]/c(=C\c2ccc(Cn3ccnc3)cc2)c(=O)[nH]/c1=C\c1ccccc1 [Compound 1929] has INHIBITION OF PAI-1 (degree of inhibition) at or above 40%?
Result: t

---

target: PAI-1 (Homo sapiens, UniProt P05121); assay: PAI-1 inhibition in the S2251 chromogenic substrate assay (PAI functional assay); format: biochemical; conditions: 50 μM; Table 1, second part; read-out: INHIBITION OF PAI-1 (degree of inhibition)
Sequence (P05121 24-402): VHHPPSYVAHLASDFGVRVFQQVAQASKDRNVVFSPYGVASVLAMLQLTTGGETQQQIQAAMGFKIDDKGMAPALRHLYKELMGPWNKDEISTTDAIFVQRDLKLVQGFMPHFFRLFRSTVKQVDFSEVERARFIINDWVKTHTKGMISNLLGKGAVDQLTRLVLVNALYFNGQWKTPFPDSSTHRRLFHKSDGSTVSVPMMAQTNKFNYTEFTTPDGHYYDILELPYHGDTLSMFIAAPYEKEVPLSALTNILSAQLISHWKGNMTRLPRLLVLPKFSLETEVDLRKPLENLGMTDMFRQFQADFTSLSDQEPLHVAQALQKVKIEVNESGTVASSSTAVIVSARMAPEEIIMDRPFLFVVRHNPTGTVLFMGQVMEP
Consider the following compounds and their measured inhibition at 50 µM readings.
Kindly provide the numeric value in % only, without the unit symbol.

Answered examples (2):
>>> print(df.to_string())
                                   compound        assay_readout  recorded_measurement
0  O=c1[nH]/c(=C\c2ccc(OCC(O)CN3CCN(CCO)CC3)cc2)c(=O)[nH]/c1=C\c1ccccc1 (stereo not drawn)  inhibition at 50 µM                    15
1  CN(C)CC(=O)NCc1ccc(/C=c2\[nH]c(=O)/c(=C/c3ccccc3)[nH]c2=O)cc1  inhibition at 50 µM                    48

In plain terms, "CN(C)CCOCc1ccc(/C=c2\[nH]c(=O)/c(=C/c3ccsc3)[nH]c2=O)cc1" has a documented inhibition at 50 µM of 71

In plain terms, "CN(C)CC(=O)NCc1ccc(/C=c2\[nH]c(=O)/c(=C/c3ccsc3)[nH]c2=O)cc1" has a documented inhibition at 50 µM of 57

In plain terms, CN(C)CC(O)COc1ccc(/C=c2\[nH]c(=O)/c(=C/c3ccccc3)[nH]c2=O)cc1 (stereo not drawn) has a documented inhibition at 50 µM of 62

In plain terms, "O=c1[nH]/c(=C\c2ccc(OCCn3ccnc3)cc2)c(=O)[nH]/c1=C\c1ccccc1" has a documented inhibition at 50 µM of 69

---

target: UniProt:P05121; assay: PAI-1 inhibition in the S2251 chromogenic substrate assay (PAI functional assay); assay type: biochemical; conditions: 25 μm; Table 1, first part; unit assumed
Assay Readout: INHIBITION OF PAI-1 (degree of inhibition) (%)
Kindly provide the numeric value in % only, without the unit symbol.

In [3]: df
Out[3]:
                            smiles_notation  recorded_measurement
0  COc1ccc(/C=c2\[nH]c(=O)/c(=C/c3cn(C(=O)OC(C)(C)C)c4ccccc34)[nH]c2=O)cc1                    26
1  CC(C)(C)OC(=O)n1cccc1/C=c1\[nH]c(=O)/c(=C/c2ccccc2)[nH]c1=O                     2
2  O=c1[nH]/c(=C\c2ccc(Cn3ccnc3)cc2)c(=O)[nH]/c1=C\c1ccccc1                    59
3  COc1cc(C=C/C=c2\[nH]c(=O)/c(=C/c3ccccc3)[nH]c2=O)ccc1OCCN(C)C                     2
4  CC(=O)Nc1ccc(/C=c2\[nH]c(=O)/c(=C/C3CCCCC3)[nH]c2=O)cc1                    13

INHIBITION OF PAI-1 (degree of inhibition) of "COc1ccc(/C=c2\[nH]c(=O)/c(=C/c3ccc(CN)cc3)[nH]c2=O)cc1" , assay on UniProt:P05121, is 46

---

target: PAI-1 (Homo sapiens, UniProt P05121); assay: PAI-1 inhibition in the S2251 chromogenic substrate assay (PAI functional assay); assay type: biochemical; details: 6.25 μm; Table 1, first part; unit assumed
Structures can show the parent of a compound that is named as a salt.
Assay Readout: INHIBITION OF PAI-1 (degree of inhibition) (%)
Kindly provide the numeric value in % only, without the unit symbol.

>>> print(df.to_string())
                                   compound                          assay_target  recorded_measurement
0  O=c1[nH]/c(=C\C2CCCCC2)c(=O)[nH]/c1=C\c1ccccc1  PAI-1 (Homo sapiens, UniProt P05121)                     0
1  O=c1[nH]/c(=C\c2ccccc2)c(=O)[nH]/c1=C\C=C(c1ccccc1)c1ccccc1  PAI-1 (Homo sapiens, UniProt P05121)                    14
2  O=c1[nH]/c(=C\c2ccc(-n3ccnc3)cc2)c(=O)[nH]/c1=C\c1ccccc1  PAI-1 (Homo sapiens, UniProt P05121)                    30
3  COc1ccc(/C=c2\[nH]c(=O)/c(=C/c3ccc(OC(=O)CN4C(=O)c5ccccc5C4=O)cc3)[nH]c2=O)cc1  PAI-1 (Homo sapiens, UniProt P05121)                     0
4  CN1CCC(N(C)Cc2ccc(/C=c3\[nH]c(=O)/c(=C/c4ccccc4)[nH]c3=O)cc2)CC1  PAI-1 (Homo sapiens, UniProt P05121)                     0
5  COc1cc(C=C/C=c2\[nH]c(=O)/c(=C/c3ccccc3)[nH]c2=O)ccc1OCCN(C)C  PAI-1 (Homo sapiens, UniProt P05121)                     1
6  CN(C)CCCOc1ccc(/C=c2\[nH]c(=O)/c(=C/c3ccc(-n4ccnc4)cc3)[nH]c2=O)cc1  PAI-1 (Homo sapiens, UniProt P05121)                     0

In plain terms, COc1cc(/C=c2\[nH]c(=O)/c(=C/c3ccccc3)[nH]c2=O)ccc1OCCN(C)C [Compound 1959, hydrochloride] has a documented INHIBITION OF PAI-1 (degree of inhibition) of 1

---

Target: PAI-1 (Homo sapiens, UniProt P05121)
Experiment: PAI-1 inhibition in the S2251 chromogenic substrate assay (PAI functional assay)
Type: biochemical
Settings: 50 μM; Table 1, second part; read-out: INHIBITION OF PAI-1 (degree of inhibition)
Procedure: In this assay, a compound is incubated with PAI-1 prior to addition to the tPA assay system. Inhibition of PAI-1 results in the production of plasmin from plasminogen. […] Compounds of formula (A) were tested in a PAI chromogenic substrate assay. […] In turn, the plasmin cleaved the chromogenic substrate S2251 (Kabi-Vitrum) producing pNA (p-nitroaniline) which was detected scectrophotometrically at 405 nm.
Outcome: condition met for inhibition at 50 µM of at least 60%; condition not met for anything lower.

Illustrative cases are given below, each with its answer.
>>> df
                                   molecule                          assay_target           category
0  O=c1[nH]/c(=C\c2ccc(OCC(O)CN3CCOCC3)cc2)c(=O)[nH]/c1=C\c1ccccc1 (stereo not drawn) [Compound 5040]  PAI-1 (Homo sapiens, UniProt P05121)  condition not met
1  CN(C)CCOc1ccc(/C=c2\[nH]c(=O)/c(=C/c3ccoc3)[nH]c2=O)cc1 [Compound 5062]  PAI-1 (Homo sapiens, UniProt P05121)      condition met
2  CN(C)CCOCc1ccc(/C=c2\[nH]c(=O)/c(=C/c3ccoc3)[nH]c2=O)cc1 [Compound 5077]  PAI-1 (Homo sapiens, UniProt P05121)  condition not met
3  CN(C)CCSCc1ccc(/C=c2\[nH]c(=O)/c(=C/c3ccoc3)[nH]c2=O)cc1 [Compound 5073]  PAI-1 (Homo sapiens, UniProt P05121)      condition met

Now examine the next entry.
Query: Dear colleague, could you confirm whether CN(C)CCCOc1ccc(/C=c2\[nH]c(=O)/c(=C/c3ccco3)[nH]c2=O)cc1 [Compound 5041] has inhibition at 50 µM at or above 60%?
Result: condition not met

---

target: PAI-1 (Homo sapiens); assay: PAI-1 inhibition in the S2251 chromogenic substrate assay (PAI functional assay); assay type: biochemical; details: 25 μm; Table 1, first part; unit assumed
Where a name gives a salt, the structure may show the parent alone.
Assay Readout: INHIBITION OF PAI-1 (degree of inhibition) (%)
Kindly provide the numeric value in % only, without the unit symbol.

>>> print(df.to_string())
                                   molecule          assay_target  units_of_measure  recorded_measurement
0  CN(C)CCN(C)Cc1ccc(/C=c2\[nH]c(=O)/c(=C/c3ccccc3)[nH]c2=O)cc1 [Compound 1982, hydrochloride]  PAI-1 (Homo sapiens)                 %                    28

In plain terms, COc1cc(/C=c2\[nH]c(=O)/c(=C/c3ccccc3)[nH]c2=O)ccc1OCCN(C)C [Compound 1959, hydrochloride] has a documented INHIBITION OF PAI-1 (degree of inhibition) of 2

In plain terms, "CC(C)(C)OC(=O)n1cc(/C=c2\[nH]c(=O)/c(=C/c3c(Cl)cccc3Cl)[nH]c2=O)c2ccccc21" has a documented INHIBITION OF PAI-1 (degree of inhibition) of 46

In plain terms, "COc1ccc(/C=c2\[nH]c(=O)/c(=C/c3c[nH]c4ccccc34)[nH]c2=O)cc1" has a documented INHIBITION OF PAI-1 (degree of inhibition) of 39

In plain terms, "CN(C)c1ccc(C=C/C=c2\[nH]c(=O)/c(=C/c3ccccc3)[nH]c2=O)cc1" has a documented INHIBITION OF PAI-1 (degree of inhibition) of 25
